assay: tissue distribution pharmacokinetics after single i.p. administration; format: in vivo, rat; settings: male, Wistar, rat, ip; brain, 1.0 mg/kg i.p.
measurement-type: MRT (h)
Return type: number; implicit unit h.

Q: // lookup MRT for CN1CCN(c2nc(N)nc(C(C)(C)Sc3ccc4ccccc4c3)n2)CC1 [WA-22]
A: 1.51

###

test: tissue distribution pharmacokinetics after single i.p. administration; type: in vivo, rat; conditions: male, Wistar, rat, ip; kidneys, 1.0 mg/kg i.p.
measurement-type: MRT (h)
Return type: number; implicit unit h.

Q: // lookup MRT for CN1CCN(c2nc(N)nc(C(C)(C)Sc3ccc4ccccc4c3)n2)CC1
A: 1.79
